B1: SETD8 (parent)
chain: FVVEYHGDLIEITDAKKREALYAQ

# Variants of: B1
# experiment.summary: protein stability index of a GFP-peptide fusion (GPS, HEK-293T) (PSI 1-6); higher = more stable;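 also: lentivirally expressed fusions sorted by FACS into six bins by GFP to DsRed ratio, PSI derived from sequencing read proportions per bin multiplied by bin number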
# experimental.conditions: c terminus: a fixed tail appended
property.measured: protein stability index
Number only, no unit.

Dear colleague, I am looking for the recorded protein stability index of the following variant: `E4T`
1.74

Follow-up item: `V3G`
3.07

Try this variant too: `L21C`
1.82

Another variant to check: `D14A`
2.08

Record: `G7P`
2.65

Now consider `T13Y` .
1.78

Would you kindly repeat that for `D14S` ?
1.88

What about `V3Y` ?
1.99

Then this variant: `K17Q`
1.85

Please answer likewise for `A15F`
2.25

One more variant: `V3L`
1.98

Now give it for `K17E` too.
2.14

How about `I10D` ?
2.58

Entry to check: `Y5T`
2.32

Please do the same for `D8N` as well.
1.7

What about `I10W` ?
1.21

Proceed to `A23Y`
1.3

Follow-up entry: `R18G`
1.24

One more variant: `E4S`
1.76

Also `E4L` , if possible.
2.61

Same question, `I12S` this time
2.09

Request: `Q24P`
2.05
